tested on: HCT-116; test: Cytotoxicity against human HCT116 cells after 48 hrs by MTT assay; assay type: functional, cell-based; conditions: HCT-116, 48 h
recorded_metric: pIC50
Please keep in mind that pIC50 is minus log10 of the molar concentration; only the number is needed.

Entry `Cc1cc(=O)c2c(O)cc(O)c([C@H]3CCN(C)C[C@H]3O)c2o1` : reported pIC50 = ?
5.06

----------
test system: MCF7; assay: Cytotoxicity against human MCF7 cells after 48 hrs by MTT assay; format: functional, cell-based; settings: MCF7, 48 h
pIC50: −log10 of the molar value.
recorded_metric: pIC50

Entry `Cc1cc(=O)c2c(O)cc(O)c([C@H]3CCN(C)C[C@H]3O)c2o1` : reported pIC50 = ?
< 5.00
